Cited source: patent US20100298225A1

Molecular target: Recombinant Cx43CT (carboxyl terminal domain of connexin43, sequence 255-382 of rCx43 preceded by GPLG) (rat, UniProt P08050)
Sequence (P08050 other isoform, or with tags, fused parts or gaps limits assumed): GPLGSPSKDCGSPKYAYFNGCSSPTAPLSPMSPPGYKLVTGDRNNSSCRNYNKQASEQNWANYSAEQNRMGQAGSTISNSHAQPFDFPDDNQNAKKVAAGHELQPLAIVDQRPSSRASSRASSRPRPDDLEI
Assay: SPR, Cx43CT immobilised, peptide at 250 uM, response normalised on Mw
Entries and their measured SPR normalised on Mw at 250 uM follow.

Known results for binders:
[
  {
    "BINDER": "Ac-RRNYRRNY-NH2 [Compound 2497]",
    "ASSAY RESULT": "16.3 (SPRrespons*100)/Mw"
  },
  {
    "BINDER": "Ac-RRNYSHSRRNY-NH2 [Compound 2507]",
    "ASSAY RESULT": "16.4 (SPRrespons*100)/Mw"
  },
  {
    "BINDER": "Ac-RRNYSAVPFYSHSRRNY-NH2 [Compound 2506]",
    "ASSAY RESULT": "14.8 (SPRrespons*100)/Mw"
  },
  {
    "BINDER": "Ac-RRNYGGGSAVPFYRRNY-NH2 [Compound 2508]",
    "ASSAY RESULT": "13.7 (SPRrespons*100)/Mw"
  },
  {
    "BINDER": "Ac-YNRRGGGSAVPFYSHSYNRR-NH2 [Compound 2496]",
    "ASSAY RESULT": "15 (SPRrespons*100)/Mw"
  }
]

**Query** # query: SPR normalised on Mw at 250 uM of entry Ac-RRNYGGSAVPFYSHRRNY-NH2 [Compound 2510]
**Result** 14.8 (SPRrespons*100)/Mw

**Query** Tell me the measured SPR normalised on Mw at 250 uM of Ac-RRNYGGGRRNY-NH2 [Compound 2509] , please.
**Result** 10.5 (SPRrespons*100)/Mw

**Query** May I ask what SPR normalised on Mw at 250 uM has been recorded for Ac-RRNYVPRRNY-NH2 [Compound 2512] ?
**Result** 8.2 (SPRrespons*100)/Mw

**Query** Which measured SPR normalised on Mw at 250 uM value corresponds to Ac-RRNYAVPFRRNY-NH2 [Compound 2511] ?
**Result** 13 (SPRrespons*100)/Mw
